- Test system: HCT116 cells
- TEST_SUMMARY: CCK-8 antiproliferation assay, HCT116
- Assay type: cell-based
- EXPERIMENTAL_SETUP: Homo sapiens, HCT-116; 20 μM, 48 h, CCK-8, mean ± SD; read-out: Inhibition Rate (%) at 20 μM, HCT116
- Method: Human lung carcinoma cell lines A549, human cervical cancer cell lines HeLa, human prostate cancer cell lines PC3, human colorectal carcinoma cell lines HCT116, and human liver cells L02 were purchased from the Chinese Academy of Sciences Shanghai Cell Bank (Shanghai, China). […] Cell viability was determined using a CCK-8 kit (Apexbio, Houston, TX, USA). […] Subsequently, absorbance was assessed at 450 nm. […]
Consider the following molecules and their measured inhibition at 20 µM readings.
The reply should be a number in %, with the unit left off.

See these solved cases before continuing.
{"COMPOUND_STRUCTURE_STRING": "COc1cc(-c2ccc(/C=N/NC(=O)c3ccccc3)o2)c(OC)cc1-c1ccc2nccnc2c1", "TARGET_DESC": "HCT116 cells", "UNIT_ABBREV": "%", "inhibition at 20 µM": 10.9}
{"COMPOUND_STRUCTURE_STRING": "COc1cc(-c2cc(OC)c3ccccc3c2OC)c(OC)cc1-c1ccc(/C=N/NC(=O)c2ccc(O)cc2)o1", "TARGET_DESC": "HCT116 cells", "UNIT_ABBREV": "%", "inhibition at 20 µM": 48.5}
{"COMPOUND_STRUCTURE_STRING": "COc1cc(-c2ccc(/C=N/NC(=O)c3cccc(C)c3)o2)c(OC)cc1-c1ccc2nccnc2c1", "TARGET_DESC": "HCT116 cells", "UNIT_ABBREV": "%", "inhibition at 20 µM": 18.8}
{"COMPOUND_STRUCTURE_STRING": "COc1cc(-c2cc(OC)c3ccccc3c2OC)c(OC)cc1-c1ccc(/C=N/NC(=O)c2ccc(-c3ccccc3)cc2)o1", "TARGET_DESC": "HCT116 cells", "UNIT_ABBREV": "%", "inhibition at 20 µM": 4.39}
{"COMPOUND_STRUCTURE_STRING": "COc1cc(-c2ccc(/C=N/NC(=O)c3cccnc3)o2)c(OC)cc1-c1cnc2ccccc2n1", "TARGET_DESC": "HCT116 cells", "UNIT_ABBREV": "%", "inhibition at 20 µM": 33.8}

Input line: State its inhibition at 20 µM for this molecule: COc1cc(-c2ccc(/C=N/NC(=O)c3ccc(F)cc3)o2)c(OC)cc1-c1ccc2nccnc2c1
Output line: 29.9

Input line: State its inhibition at 20 µM for this molecule: COc1cc(-c2cc(OC)c3ccccc3c2OC)c(OC)cc1-c1ccc(/C=N/NC(=O)c2ccccc2)o1
Output line: 10.9

Input line: State its inhibition at 20 µM for this molecule: COc1cc(-c2ccc(/C=N/NC(=O)c3ccc(-c4ccccc4)cc3)o2)c(OC)cc1-c1cnc2ccccc2n1
Output line: 20.9

====

- System: PC3 cells
- TEST_SUMMARY: CCK-8 antiproliferation assay, PC3
- Assay type: cell-based
- EXPERIMENTAL_SETUP: Homo sapiens, PC-3; 20 μM, 48 h, CCK-8, mean ± SD; read-out: Inhibition Rate (%) at 20 μM, PC3
Consider the following molecules and their measured inhibition at 20 µM readings.
The reply should be a number in %, with the unit left off.

See these solved cases before continuing.
{"MOLECULE": "COc1cc(-c2ccc(/C=N/NC(=O)c3ccccn3)o2)c(OC)cc1-c1cnc2ccccc2n1 [QW6]", "inhibition at 20 µM / %": 0.1}
{"MOLECULE": "COc1cc(-c2ccc(/C=N/NC(=O)c3ccncc3)o2)c(OC)cc1-c1cnc2ccccc2n1 [QW5]", "inhibition at 20 µM / %": 26}
{"MOLECULE": "COc1cc(-c2ccc(/C=N/NC(=O)c3ccc(F)cc3)o2)c(OC)cc1-c1cnc2ccccc2n1 [QW1]", "inhibition at 20 µM / %": 5.13}
{"MOLECULE": "COc1cc(-c2ccc(/C=N/NC(=O)c3ccc(O)cc3)o2)c(OC)cc1-c1ccc2nccnc2c1 [QW12]", "inhibition at 20 µM / %": 52.5}
{"MOLECULE": "COc1cc(-c2ccc(/C=N/NC(=O)c3ccc(F)cc3)o2)c(OC)cc1-c1ccc2nccnc2c1 [QW9]", "inhibition at 20 µM / %": 3.98}
{"MOLECULE": "COc1cc(-c2ccc(/C=N/NC(=O)c3ccccn3)o2)c(OC)cc1-c1ccc2nccnc2c1 [QW14]", "inhibition at 20 µM / %": 12.9}

Input line: State its inhibition at 20 µM for this molecule: COc1cc(-c2cc(OC)c3ccccc3c2OC)c(OC)cc1-c1ccc(/C=N/NC(=O)c2cccc(C)c2)o1 [QW23]
Output line: 2.99

Input line: State its inhibition at 20 µM for this molecule: COc1cc(-c2ccc(/C=N/NC(=O)c3ccncc3)o2)c(OC)cc1-c1ccc2nccnc2c1 [QW13]
Output line: 18.5
